assay.target: Breakpoint cluster region protein/Tyrosine-protein kinase ABL1 (Homo sapiens, UniProt P00519+P11274)
Sequence (P00519 whole entry): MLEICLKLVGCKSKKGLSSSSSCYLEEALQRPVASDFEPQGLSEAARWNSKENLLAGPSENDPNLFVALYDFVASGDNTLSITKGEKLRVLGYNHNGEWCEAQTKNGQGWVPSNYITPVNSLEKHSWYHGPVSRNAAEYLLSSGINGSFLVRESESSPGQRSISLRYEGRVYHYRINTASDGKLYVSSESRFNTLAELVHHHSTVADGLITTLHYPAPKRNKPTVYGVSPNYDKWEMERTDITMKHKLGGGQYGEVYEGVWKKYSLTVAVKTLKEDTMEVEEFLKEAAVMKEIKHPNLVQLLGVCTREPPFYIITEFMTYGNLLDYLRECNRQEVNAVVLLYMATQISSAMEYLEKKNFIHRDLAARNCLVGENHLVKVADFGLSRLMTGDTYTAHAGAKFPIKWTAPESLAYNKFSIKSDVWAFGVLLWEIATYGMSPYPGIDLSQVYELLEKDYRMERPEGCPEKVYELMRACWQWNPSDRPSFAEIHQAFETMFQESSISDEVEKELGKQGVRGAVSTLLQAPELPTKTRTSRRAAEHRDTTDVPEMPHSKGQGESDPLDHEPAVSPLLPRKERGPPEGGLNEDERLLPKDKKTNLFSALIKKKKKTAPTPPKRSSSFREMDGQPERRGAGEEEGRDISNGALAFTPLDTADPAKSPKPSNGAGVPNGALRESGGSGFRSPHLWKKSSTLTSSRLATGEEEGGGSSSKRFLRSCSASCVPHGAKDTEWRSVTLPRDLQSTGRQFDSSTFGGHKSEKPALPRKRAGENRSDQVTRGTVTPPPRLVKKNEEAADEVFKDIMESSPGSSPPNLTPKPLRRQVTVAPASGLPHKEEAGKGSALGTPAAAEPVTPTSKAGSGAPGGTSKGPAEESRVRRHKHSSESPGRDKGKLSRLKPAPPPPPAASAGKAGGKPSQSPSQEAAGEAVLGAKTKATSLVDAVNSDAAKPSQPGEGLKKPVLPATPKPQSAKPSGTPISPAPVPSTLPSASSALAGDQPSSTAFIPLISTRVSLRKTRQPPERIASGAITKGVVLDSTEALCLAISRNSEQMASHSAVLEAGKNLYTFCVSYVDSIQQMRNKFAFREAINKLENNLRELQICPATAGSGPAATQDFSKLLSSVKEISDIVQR
Sequence (P11274 whole entry): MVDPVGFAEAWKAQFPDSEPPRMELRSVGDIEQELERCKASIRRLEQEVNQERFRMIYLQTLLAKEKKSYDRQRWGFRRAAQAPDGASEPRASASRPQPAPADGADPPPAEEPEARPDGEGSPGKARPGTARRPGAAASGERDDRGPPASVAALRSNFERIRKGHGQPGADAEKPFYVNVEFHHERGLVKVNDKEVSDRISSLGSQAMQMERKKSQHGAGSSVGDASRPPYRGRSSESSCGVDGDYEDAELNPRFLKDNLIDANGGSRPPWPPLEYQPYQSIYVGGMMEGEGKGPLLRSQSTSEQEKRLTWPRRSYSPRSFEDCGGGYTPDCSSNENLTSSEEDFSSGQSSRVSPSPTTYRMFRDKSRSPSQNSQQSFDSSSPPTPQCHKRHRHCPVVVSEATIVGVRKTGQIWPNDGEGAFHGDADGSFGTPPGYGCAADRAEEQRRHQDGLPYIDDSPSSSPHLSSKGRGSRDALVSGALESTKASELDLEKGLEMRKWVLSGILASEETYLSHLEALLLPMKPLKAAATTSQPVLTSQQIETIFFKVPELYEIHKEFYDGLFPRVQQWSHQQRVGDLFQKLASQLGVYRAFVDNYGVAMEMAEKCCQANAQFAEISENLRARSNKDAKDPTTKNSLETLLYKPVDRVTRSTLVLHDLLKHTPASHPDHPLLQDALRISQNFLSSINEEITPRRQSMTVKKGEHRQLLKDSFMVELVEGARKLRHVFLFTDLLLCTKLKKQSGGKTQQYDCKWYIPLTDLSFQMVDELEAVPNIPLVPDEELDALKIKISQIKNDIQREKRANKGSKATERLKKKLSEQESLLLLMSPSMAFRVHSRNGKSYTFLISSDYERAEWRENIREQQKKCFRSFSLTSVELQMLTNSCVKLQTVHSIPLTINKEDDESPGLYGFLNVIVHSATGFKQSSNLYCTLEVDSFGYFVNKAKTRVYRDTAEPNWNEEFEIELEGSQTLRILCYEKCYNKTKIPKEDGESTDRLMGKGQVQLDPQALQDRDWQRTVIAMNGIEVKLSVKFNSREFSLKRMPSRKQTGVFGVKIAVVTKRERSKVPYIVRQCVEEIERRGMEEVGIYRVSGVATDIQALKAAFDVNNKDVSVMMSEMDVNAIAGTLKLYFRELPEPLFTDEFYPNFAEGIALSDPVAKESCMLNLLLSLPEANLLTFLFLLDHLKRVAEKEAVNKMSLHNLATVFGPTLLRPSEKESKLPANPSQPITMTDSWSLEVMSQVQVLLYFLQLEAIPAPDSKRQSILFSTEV
assay.remarks: Antiproliferative activity against human K562 cell line expressing Bcr-Abl
property.measured: pIC50
The scale used: pIC50 is minus the common logarithm of the concentration in molar units.

[
  {
    "compound": "Oc1ccc(-c2ccccc2-c2cc(O)cc(O)c2)cc1 [[1,1';2',1'']-terphenyl-4,3'',5''-triol]",
    "pIC50": 5.10
  },
  {
    "compound": "Oc1ccc(-c2ccc(-c3cc(O)cc(O)c3)cc2)cc1 [[1,1';4',1'']-terphenyl-4,3'',5''-triol]",
    "pIC50": 4.70
  },
  {
    "compound": "COc1cc(OC)cc(-c2ccc(-c3ccc(O)cc3)cc2)c1",
    "pIC50": 4.46
  },
  {
    "compound": "COc1ccc(-c2cccc(-c3cc(OC)cc(OC)c3)c2)cc1",
    "pIC50": 5.00
  },
  {
    "compound": "COc1cc(/C=C/c2cccc(OC)c2O)cc(OC)c1",
    "pIC50": 5.10
  },
  {
    "compound": "COc1cc(/C=C/c2ccccc2O)cc(OC)c1",
    "pIC50": 4.62
  },
  {
    "compound": "COc1ccc(-c2ccccc2-c2cc(OC)cc(OC)c2)cc1",
    "pIC50": 5.22
  },
  {
    "compound": "COc1ccc(/C=C/c2cc(OC)cc(OC)c2)cc1",
    "pIC50": 5.00
  },
  {
    "compound": "COc1cc(OC)cc(-c2ccccc2-c2ccc(O)cc2)c1",
    "pIC50": 4.85
  },
  {
    "compound": "COc1cc(OC)cc(-c2ccc3cc(O)ccc3c2)c1 [6-(3,5-dimethoxy-phenyl)-naphthalen-2-ol]",
    "pIC50": 4.38
  }
]

Ask: Name the recorded pIC50 for COc1cc(/C=C/c2cc(Cl)ccc2O)cc(OC)c1 .
Result: 4.80

Ask: Name the recorded pIC50 for COc1cc(/C=C/c2cc(OC)c(O)c(OC)c2)cc(OC)c1 .
Result: 4.64

Ask: Name the recorded pIC50 for COc1cc(OC)cc(-c2cccc(-c3ccc(O)cc3)c2)c1 .
Result: 4.85

Ask: Name the recorded pIC50 for Oc1ccc(-c2cccc(-c3cc(O)cc(O)c3)c2)cc1 [[1,1';3',1'']-terphenyl-4,3'',5''-triol] .
Result: 4.70

Ask: Name the recorded pIC50 for COc1cc(/C=C/c2cccc(O)c2)cc(OC)c1 .
Result: 4.59

Ask: Name the recorded pIC50 for Oc1ccc(/C=C/c2cc(O)cc(O)c2)cc1 .
Result: 4.55

Ask: Name the recorded pIC50 for COc1cc(/C=C/c2ccc(O)cc2)cc(OC)c1 .
Result: 5.00

Ask: Name the recorded pIC50 for Oc1cc(O)cc(-c2ccc3cc(O)ccc3c2)c1 .
Result: 4.70
